B1: TPR t1 (parent)
chain: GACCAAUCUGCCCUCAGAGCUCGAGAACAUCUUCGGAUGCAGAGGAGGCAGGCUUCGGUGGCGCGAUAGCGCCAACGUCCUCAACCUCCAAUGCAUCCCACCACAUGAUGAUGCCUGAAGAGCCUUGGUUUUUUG

- Variants of: B1
- Method description: polymerase ribozyme fitness, log enrichment relative to wild type (log ratio); higher = more active; in vitro selection for triplet polymerase activity

{"Mutant label": "C73G C86A", "polymerase ribozyme fitness (log ratio)": -1.38}
{"Mutant label": "A95G G117C", "polymerase ribozyme fitness (log ratio)": -3.87}
{"Mutant label": "A6U G120C", "polymerase ribozyme fitness (log ratio)": 1.12}
{"Mutant label": "U33A A50U G93C A95G C101G", "polymerase ribozyme fitness (log ratio)": -7.02}
{"Mutant label": "C15A U54A C56G C72A", "polymerase ribozyme fitness (log ratio)": -2.89}
{"Mutant label": "A26G G42C U59C G113A", "polymerase ribozyme fitness (log ratio)": -5.32}
{"Mutant label": "U9C A43U C73U C79U A111G", "polymerase ribozyme fitness (log ratio)": -0.526}
{"Mutant label": "C53G A90G", "polymerase ribozyme fitness (log ratio)": 0.537}
{"Mutant label": "C11U U32G U38G U54C C99G G120C", "polymerase ribozyme fitness (log ratio)": -6.93}
{"Mutant label": "A37G G113C G135A", "polymerase ribozyme fitness (log ratio)": -2.17}
{"Mutant label": "C34A G135U", "polymerase ribozyme fitness (log ratio)": -3.05}
{"Mutant label": "C13A G93C C123G", "polymerase ribozyme fitness (log ratio)": -0.906}
{"Mutant label": "C15A G48C C123G", "polymerase ribozyme fitness (log ratio)": -1.77}
{"Mutant label": "C62U C98U A111U G120C", "polymerase ribozyme fitness (log ratio)": -4.23}
{"Mutant label": "C49G C89G", "polymerase ribozyme fitness (log ratio)": -2.16}
{"Mutant label": "G35U G69A", "polymerase ribozyme fitness (log ratio)": -7.16}
{"Mutant label": "C8U C72G U92A C123A", "polymerase ribozyme fitness (log ratio)": -2.13}
{"Mutant label": "A24G C62A", "polymerase ribozyme fitness (log ratio)": -2.63}
{"Mutant label": "A6U G63C C80A", "polymerase ribozyme fitness (log ratio)": -3.25}
{"Mutant label": "G39U G60A U78C G127U", "polymerase ribozyme fitness (log ratio)": -2.06}
{"Mutant label": "U9G G48U G93C A111C", "polymerase ribozyme fitness (log ratio)": -1.91}
{"Mutant label": "G51C C80G G135U", "polymerase ribozyme fitness (log ratio)": -1.27}
{"Mutant label": "C40A G45U G122U", "polymerase ribozyme fitness (log ratio)": -2.79}
{"Mutant label": "A27U C72U U87G", "polymerase ribozyme fitness (log ratio)": -3.11}
{"Mutant label": "G58U A119G", "polymerase ribozyme fitness (log ratio)": 0.849}
{"Mutant label": "C4U C97A", "polymerase ribozyme fitness (log ratio)": -5.21}
{"Mutant label": "C8U C73U U78C", "polymerase ribozyme fitness (log ratio)": 0.277}
{"Mutant label": "C11U C15U A16C G42A", "polymerase ribozyme fitness (log ratio)": -2.92}
{"Mutant label": "G110U A121C", "polymerase ribozyme fitness (log ratio)": -2.17}
{"Mutant label": "C13G G52U G60A C104U C115G A121C", "polymerase ribozyme fitness (log ratio)": -3.16}
{"Mutant label": "G57U C88U A108G", "polymerase ribozyme fitness (log ratio)": -3.61}
{"Mutant label": "U9C G60U U109G C114G", "polymerase ribozyme fitness (log ratio)": -3.95}
{"Mutant label": "A29U A84C U87C U112C", "polymerase ribozyme fitness (log ratio)": -0.813}
{"Mutant label": "G17U G71A G135U", "polymerase ribozyme fitness (log ratio)": -4.32}
{"Mutant label": "G47U C72U", "polymerase ribozyme fitness (log ratio)": -1.71}
{"Mutant label": "G17C U133G G135U", "polymerase ribozyme fitness (log ratio)": -3.94}
{"Mutant label": "C13U C22G C49U G71C C102U G122A", "polymerase ribozyme fitness (log ratio)": -5.74}
{"Mutant label": "G48U U87G U133G", "polymerase ribozyme fitness (log ratio)": -0.334}
{"Mutant label": "A16C C89U U106A", "polymerase ribozyme fitness (log ratio)": -2.64}
{"Mutant label": "C11U C28G A37G G120U U130A", "polymerase ribozyme fitness (log ratio)": -2.33}
{"Mutant label": "G63C G65A G117C A119G A121C", "polymerase ribozyme fitness (log ratio)": -7.02}
{"Mutant label": "C56U C123A U126A", "polymerase ribozyme fitness (log ratio)": 0.177}
{"Mutant label": "C4A A24G G48U G60A", "polymerase ribozyme fitness (log ratio)": -4.54}
{"Mutant label": "C20G U133G", "polymerase ribozyme fitness (log ratio)": -3.81}
{"Mutant label": "C56U C70U C82G C124A U130C", "polymerase ribozyme fitness (log ratio)": 0.377}
{"Mutant label": "C88A C94G U112C G120C", "polymerase ribozyme fitness (log ratio)": -1.09}
{"Mutant label": "A2C U7G G57U G60U", "polymerase ribozyme fitness (log ratio)": -0.82}
{"Mutant label": "C4G U9A C62G U92A A95G U112C G113A", "polymerase ribozyme fitness (log ratio)": -5.53}
{"Mutant label": "C49A G63A", "polymerase ribozyme fitness (log ratio)": -0.725}
{"Mutant label": "G45U C72G C89G", "polymerase ribozyme fitness (log ratio)": -3.39}
{"Mutant label": "A5C A6U U32C G69C", "polymerase ribozyme fitness (log ratio)": -1.62}
{"Mutant label": "C31U C72A", "polymerase ribozyme fitness (log ratio)": -4.11}
{"Mutant label": "G60A C89U", "polymerase ribozyme fitness (log ratio)": -0.18}
{"Mutant label": "A37G C73A C82A A83G", "polymerase ribozyme fitness (log ratio)": -2.53}
{"Mutant label": "G61C G107A U112A G117U", "polymerase ribozyme fitness (log ratio)": -6.86}
{"Mutant label": "G61A C72U G77U", "polymerase ribozyme fitness (log ratio)": -0.134}
{"Mutant label": "C49A U92C", "polymerase ribozyme fitness (log ratio)": -1.43}
{"Mutant label": "U9A G58C G71A U112A G113C G128U", "polymerase ribozyme fitness (log ratio)": -3}
{"Mutant label": "A43U U132A", "polymerase ribozyme fitness (log ratio)": -1.08}
{"Mutant label": "A41U A90G", "polymerase ribozyme fitness (log ratio)": -0.36}
{"Mutant label": "C4U G71U", "polymerase ribozyme fitness (log ratio)": -0.506}
{"Mutant label": "A2G G42U G69A C123A", "polymerase ribozyme fitness (log ratio)": -5.6}
{"Mutant label": "C11U C15A C56U", "polymerase ribozyme fitness (log ratio)": -1.47}
{"Mutant label": "G47C C49G U96A", "polymerase ribozyme fitness (log ratio)": -2.52}
{"Mutant label": "G69A C123U", "polymerase ribozyme fitness (log ratio)": -0.983}
{"Mutant label": "C4U G71A G77U", "polymerase ribozyme fitness (log ratio)": -1.79}
{"Mutant label": "C4U A16G G60C C79A", "polymerase ribozyme fitness (log ratio)": -4.11}
{"Mutant label": "A6C U54G C62U U92G", "polymerase ribozyme fitness (log ratio)": -4.44}
{"Mutant label": "A5G C15A G61A", "polymerase ribozyme fitness (log ratio)": -0.776}
{"Mutant label": "C15A G120U", "polymerase ribozyme fitness (log ratio)": -1.44}
{"Mutant label": "C20U C114G", "polymerase ribozyme fitness (log ratio)": -1.55}
{"Mutant label": "C8G C123A", "polymerase ribozyme fitness (log ratio)": 0.956}
{"Mutant label": "G61U G128A", "polymerase ribozyme fitness (log ratio)": -1.7}
{"Mutant label": "A6G", "polymerase ribozyme fitness (log ratio)": 0.335}
{"Mutant label": "U9A G19C A41U", "polymerase ribozyme fitness (log ratio)": -1.63}
